systemTested: Transcription factor p65 (Human)
Sequence (Q04206 whole entry): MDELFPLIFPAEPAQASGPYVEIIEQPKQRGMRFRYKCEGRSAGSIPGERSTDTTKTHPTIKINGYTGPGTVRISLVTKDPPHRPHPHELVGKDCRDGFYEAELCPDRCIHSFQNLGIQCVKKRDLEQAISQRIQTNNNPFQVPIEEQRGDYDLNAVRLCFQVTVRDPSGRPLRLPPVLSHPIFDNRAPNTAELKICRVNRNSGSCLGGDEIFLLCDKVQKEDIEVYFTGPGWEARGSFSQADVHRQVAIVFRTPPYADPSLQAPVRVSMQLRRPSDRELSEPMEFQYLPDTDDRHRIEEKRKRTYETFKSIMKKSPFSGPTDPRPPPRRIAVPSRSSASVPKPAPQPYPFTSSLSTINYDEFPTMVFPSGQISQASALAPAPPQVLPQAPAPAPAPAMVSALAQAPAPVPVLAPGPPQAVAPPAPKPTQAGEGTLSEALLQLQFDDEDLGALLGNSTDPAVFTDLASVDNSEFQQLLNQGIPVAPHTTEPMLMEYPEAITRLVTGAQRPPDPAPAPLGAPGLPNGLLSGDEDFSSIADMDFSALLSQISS
testDetails: Inhibition of TNF-alpha-stimulated human NF-kappaB p65 RelA subunit nuclear translocation in HUVEC
experimentalEndpoint: IC50 (nM)
Answer in nM, number only, no unit symbol.

The recorded IC50 for entry COc1ccc2c(c1)-c1ccc3ccc(C)nc3c1NS2(=O)=O equals 2500

The recorded IC50 for entry COc1cc(NS(=O)(=O)c2ccc(C)cc2[N+](=O)[O-])c2ncccc2c1 equals 2100

The recorded IC50 for entry O=S1(=O)Nc2c(ccc3cccnc23)-c2cc(Cl)ccc21 equals 1100

The recorded IC50 for entry COc1cc2ccc(C)nc2c2c1-c1cc(C)ccc1S(=O)(=O)N2 equals 900

The recorded IC50 for entry COc1ccc(S(=O)(=O)Nc2cccc3ccc(C)nc23)c([N+](=O)[O-])c1 equals 1000

The recorded IC50 for entry Cc1ccc(S(=O)(=O)/C=C/C#N)cc1 equals 3000

New cases:
The recorded IC50 for entry O=S(=O)(Nc1cccc2cccnc12)c1ccc(Cl)s1 equals 1300

The recorded IC50 for entry COc1ccc2c(c1)-c1ccc3cccnc3c1NS2(=O)=O equals 1000

The recorded IC50 for entry Cc1ccc2cccc(NS(=O)(=O)c3ccc(Cl)s3)c2n1 equals 1000

The values you see were collected from BindingDB's records for doi:10.1016/j.bmcl.2007.10.100.
